Measured solubility values are reported for all entries that follow.
experiment: Evaluation of solubility in distilled water and aqueous solutions having various pH values; assay type: physicochemical; details: pH 7.4
Counter-ions that a name gives are not always drawn.

CC(C)CC(N(C)C)C1(c2ccc(Cl)cc2)CCC1 (stereo not shown) [Edisylate, sibutramine edisylate] = 8040 µg/mL
CC(C)CC(N(C)C)C1(c2ccc(Cl)cc2)CCC1.CC1(C)C2CCC1(CS(=O)(=O)O)C(=O)C2 (stereo not shown) [Camsylate, sibutramine camsylate] = 13970 µg/mL

Quick note, solubility for CC(C)CC(N(C)C)C1(c2ccc(Cl)cc2)CCC1 (stereo not shown) [Besylate, sibutramine besylate] landed at 7010 µg/mL

Quick note, solubility for CC(C)CC(N(C)C)C1(c2ccc(Cl)cc2)CCC1 (stereo not shown) [Tosylate, sibutramine tosylate] landed at 7690 µg/mL
